# TEST_TARGET: T1, SsPCP, PCP of a thaxtomin cluster from Streptomyces scabiei 87.22
# T1 chain: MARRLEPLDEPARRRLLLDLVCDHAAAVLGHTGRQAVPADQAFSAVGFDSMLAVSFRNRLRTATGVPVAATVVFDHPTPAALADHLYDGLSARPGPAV
Below, each entry is listed alongside its reported kcat/Km.

| PROTEIN | kcat/Km (M⁻¹ s⁻¹) |
| --- | --- |
| APPT, Sfp-like phosphopantetheinyl transferase (PPTase) from Anabaena sp. PCC7120 (protein) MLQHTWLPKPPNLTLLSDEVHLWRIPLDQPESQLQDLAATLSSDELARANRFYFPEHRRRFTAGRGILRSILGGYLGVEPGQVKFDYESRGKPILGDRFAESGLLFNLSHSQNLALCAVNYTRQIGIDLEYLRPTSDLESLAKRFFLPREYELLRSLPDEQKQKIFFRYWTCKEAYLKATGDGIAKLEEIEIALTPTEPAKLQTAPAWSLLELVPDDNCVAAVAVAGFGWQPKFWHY | 16700 |
| MPPT, Sfp-like phosphopantetheinyl transferase (PPTase) from Microcystis aeruginosa NIES843 (protein) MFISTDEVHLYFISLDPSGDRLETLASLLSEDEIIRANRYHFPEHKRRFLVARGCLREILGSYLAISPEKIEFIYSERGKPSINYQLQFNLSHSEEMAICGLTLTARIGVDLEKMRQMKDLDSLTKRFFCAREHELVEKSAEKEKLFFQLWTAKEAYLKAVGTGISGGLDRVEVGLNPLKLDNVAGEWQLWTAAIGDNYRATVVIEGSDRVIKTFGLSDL | 11700 |
| SPPT, Sfp-like phosphopantetheinyl transferase (PPTase) from Synechocystis sp. PCC6803 (protein) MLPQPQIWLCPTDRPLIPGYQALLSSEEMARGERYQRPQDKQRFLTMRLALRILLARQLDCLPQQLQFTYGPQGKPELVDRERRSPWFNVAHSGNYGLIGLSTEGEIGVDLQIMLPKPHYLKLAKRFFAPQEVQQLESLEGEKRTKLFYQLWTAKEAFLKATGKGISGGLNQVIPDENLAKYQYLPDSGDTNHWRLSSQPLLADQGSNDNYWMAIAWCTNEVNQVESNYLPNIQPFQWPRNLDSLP | 1000 |
| Sfp, phosphopantetheinyl transferase from Bacillus subtilis (protein) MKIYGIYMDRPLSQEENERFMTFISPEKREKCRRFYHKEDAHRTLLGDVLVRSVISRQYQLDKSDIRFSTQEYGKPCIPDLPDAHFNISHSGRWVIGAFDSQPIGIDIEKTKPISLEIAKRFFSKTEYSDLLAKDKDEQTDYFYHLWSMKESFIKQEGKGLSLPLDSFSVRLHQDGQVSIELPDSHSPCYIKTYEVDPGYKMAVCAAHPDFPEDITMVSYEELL | 35000 |
